TARGET_OF_ASSAY: T1, recombinant biotinylated human PAR2 extracellular domain (residues 1-75), N-terminal AviTag, C-terminal Flag … (human, UniProt P55085 26-75, biotin on the AviTag (enzymatic biotinylation))
T1 construct: also called Bio-human-PAR2 ECD; human PAR2 ECD; not shown: N-terminal AviTag (Avidity LLC); C-terminal Flag and poly Histidine tags
ASSAY_NOTES: HTRF competition with Par0067 IgG, pH 6.0, scFv
RECORDED_METRIC: pIC50
Give bare numbers, as −log10 of the molar value.

Recorded pIC50, per entry:
BINDER	RECORDED_METRIC	OBSERVED_RESULT
PaB670070 scFv (scFv, V domains shown, purified scFv; also called ZZ1KXE-D06) VH: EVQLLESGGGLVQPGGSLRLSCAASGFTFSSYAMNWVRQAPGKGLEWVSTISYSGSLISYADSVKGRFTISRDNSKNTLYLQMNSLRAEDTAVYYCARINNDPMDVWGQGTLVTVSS VL: SIELTQPPSVSVSPGQTASITCSGDNLGKKYVQWYQQKPGQSPVLVIYDDSNRPSGIPERFSGSNSGNTATLTISGTQAMDEADYYCQTWDHNHHTGHTNVFGGGTKLTVL	pIC50	6.57
PaB670101 scFv (scFv, V domains shown, purified scFv; also called ZZ1ODO-H01) VH: EVQLLESGGGLVQPGGSLRLSCAASGFTFSSYAMNWVRQAPGKGLEWVSTISYSGSLISYADSVKGRFTISRDNSKNTLYLQMNSLRAEDTAVYYCARIHHHPHDHWGQGTLVTVSS VL: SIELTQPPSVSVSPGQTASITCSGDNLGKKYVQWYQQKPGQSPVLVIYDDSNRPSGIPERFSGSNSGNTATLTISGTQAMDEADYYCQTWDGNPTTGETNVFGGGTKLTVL	pIC50	6.30
PaB670085 scFv (scFv, V domains shown, purified scFv; also called ZZ1ODR-A02) VH: EVQLLESGGGLVQPGGSLRLSCAASGFTFSSYAMNWVRQAPGKGLEWVSTISYHGSHISYHHSHKGRFTISRDNSKNTLYLQMNSLRAEDTAVYYCARINNDPMDVWGQGTLVTVSS VL: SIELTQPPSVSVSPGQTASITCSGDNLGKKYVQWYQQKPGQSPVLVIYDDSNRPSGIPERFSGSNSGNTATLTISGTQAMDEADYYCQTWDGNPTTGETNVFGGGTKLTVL	pIC50	6.81
PaB670092 scFv (scFv, V domains shown, purified scFv; also called ZZ1ODR-G11) VH: EVQLLESGGGLVQPGGSLRLSCAASGFTFSSYAMNWVRQAPGKGLEWVSTISYHGSHISYHDSHHGRFTISRDNSKNTLYLQMNSLRAEDTAVYYCARINNDPMDVWGQGTLVTVSS VL: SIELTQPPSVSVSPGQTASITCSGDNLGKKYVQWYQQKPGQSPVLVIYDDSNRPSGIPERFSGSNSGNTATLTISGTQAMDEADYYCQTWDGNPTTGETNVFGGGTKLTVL	pIC50	6.71

State the recorded pIC50 for this entry: PaB670082 scFv (scFv, V domains shown, purified scFv; also called ZZ1OZA-D02) VH: EVQLLESGGGLVQPGGSLRLSCAASGFTFSSYAMNWVRQAPGKGLEWVSTISHSHSLISYAHSVHGRFTISRDNSKNTLYLQMNSLRAEDTAVYYCARINNDPMDVWGQGTLVTVSS VL: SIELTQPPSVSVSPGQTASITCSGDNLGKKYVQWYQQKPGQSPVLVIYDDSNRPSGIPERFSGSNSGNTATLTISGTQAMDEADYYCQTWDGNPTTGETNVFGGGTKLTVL
7.11
